Data origin, for the record: ChEMBL document CHEMBL4627254

ASSAY_SYSTEM: Histone-lysine N-methyltransferase EZH2 (Homo sapiens, UniProt Q15910)
Sequence (Q15910 whole entry): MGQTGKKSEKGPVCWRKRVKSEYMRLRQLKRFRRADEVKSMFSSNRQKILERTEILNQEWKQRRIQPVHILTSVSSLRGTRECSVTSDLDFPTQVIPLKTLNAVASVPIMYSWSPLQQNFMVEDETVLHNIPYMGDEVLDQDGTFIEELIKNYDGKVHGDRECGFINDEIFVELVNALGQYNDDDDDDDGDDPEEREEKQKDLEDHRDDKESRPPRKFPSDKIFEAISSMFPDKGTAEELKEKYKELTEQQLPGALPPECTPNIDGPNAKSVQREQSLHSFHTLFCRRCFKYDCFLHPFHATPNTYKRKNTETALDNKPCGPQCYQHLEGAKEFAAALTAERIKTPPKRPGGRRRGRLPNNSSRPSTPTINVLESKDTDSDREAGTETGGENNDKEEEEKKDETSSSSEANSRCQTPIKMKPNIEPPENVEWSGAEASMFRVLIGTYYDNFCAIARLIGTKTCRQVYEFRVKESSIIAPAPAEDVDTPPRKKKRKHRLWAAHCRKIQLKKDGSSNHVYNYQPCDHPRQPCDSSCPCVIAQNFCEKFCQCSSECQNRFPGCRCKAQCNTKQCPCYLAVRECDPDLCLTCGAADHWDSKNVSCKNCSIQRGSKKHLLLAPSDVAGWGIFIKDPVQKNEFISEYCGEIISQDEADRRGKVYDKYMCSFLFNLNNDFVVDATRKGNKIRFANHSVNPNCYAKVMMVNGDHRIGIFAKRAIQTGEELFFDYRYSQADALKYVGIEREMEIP
MEASUREMENT_NOTES: Inhibition of wild type EZH2 (unknown origin) by AlphaLISA assay
pIC50: −log10 of the molar value.
OBSERVATION_TYPE: pIC50

[1] CCN(c1cc(/C=C/c2ccc(CN3CCC4(CC3)OCCO4)cc2)cc(C(=O)NCc2c(C)c3c([nH]c2=O)CCCC3)c1C)C1CCOCC1
[2] CCN(c1cc(/C=C/c2ccc(CN3CCC4(CC3)OCCO4)cc2)cc(C(=O)NCc2c3c(c(C)[nH]c2=O)CCCC3)c1C)C1CCOCC1
Qu. Between these two entries, 1 and 2 , state which has the higher pIC50. State the label of the item chosen.
Ans. 2
(2: 7.26, 1: 6.72)

====

IC50: recorded values
MEASUREMENT_NOTES: Antiproliferative activity against over expressing […] human WSU-DLCL2 cells
Format: functional
TEST_SETTINGS: WSUDLCL2

Field: example entries. Status: answers known.
| COMPOUND_STRING | OBSERVATION_TYPE | ENDPOINT_RESULT |
| --- | --- | --- |
| CCN(c1cc(/C=C/c2ccc(CN3CCOCC3)cc2)cc(C(=O)NCc2c(C)c3c([nH]c2=O)CCCC3)c1C)C1CCOCC1 | IC50 | > 30 µM |
| CCN(c1cc(/C=C/c2ccc(S(=O)(=O)N3CCOCC3)cc2)cc(C(=O)NCc2c3c(c(C)[nH]c2=O)CCCC3)c1C)C1CCOCC1 | IC50 | > 30 µM |
| CCN(c1cc(/C=C/c2cccc(CN3CCOCC3)c2)cc(C(=O)NCc2c3c(c(C)[nH]c2=O)CCCC3)c1C)C1CCOCC1 | IC50 | > 30 µM |

Please turn your attention to the following entry.
Qu. Which value of IC50 has been reported for "CCN(c1cc(/C=C/c2ccc(CN3C[C@@H](C)O[C@@H](C)C3)c(F)c2)cc(C(=O)NCc2c(C)c3c([nH]c2=O)CCCC3)c1C)C1CCOCC1" in the records?
Ans. > 30 µM

====

MEASUREMENT_NOTES: Antiproliferative activity against over expressing […] human WSU-DLCL2 cells
Type: functional
TEST_SETTINGS: WSUDLCL2
OBSERVATION_TYPE: IC50 (µM)
Write the value in µM as a bare number.

Illustrative cases are given below, each with its answer.
| COMPOUND_STRING | IC50, µM |
| --- | --- |
| CCN(c1cc(/C=C/c2ccc(CN3C[C@@H]4C[C@H]3CO4)c(F)c2)cc(C(=O)NCc2c(C)c3c([nH]c2=O)CCCC3)c1C)C1CCOCC1 | 4.58 |
| CCN(c1cc(-c2ccc(CN3CCN(C)CC3)cc2)cc(C(=O)NCc2c3c(c(C)[nH]c2=O)CCCC3)c1C)C1CCOCC1 | 1.64 |
| CCN(c1cc(/C=C/c2ccc(CN3C[C@H]4C[C@@H]3CO4)c(F)c2)cc(C(=O)NCc2c(C)c3c([nH]c2=O)CCCC3)c1C)C1CCOCC1 | 6.18 |
| CCN(c1cc(/C=C/c2ccc(N3CCOCC3)nc2)cc(C(=O)NCc2c(C)c3c([nH]c2=O)CCCC3)c1C)C1CCOCC1 | 25.8 |
| CCN(c1cc(/C=C/c2ccc(CN3CCN(C)CC3)cc2)cc(C(=O)NCc2c3c(c(C)[nH]c2=O)CCCC3)c1C)C1CCOCC1 | 2.58 |
| CCN(c1cc(/C=C/c2cccc(CN(C)C)c2)cc(C(=O)NCc2c3c(c(C)[nH]c2=O)CCCC3)c1C)C1CCOCC1 | 1.61 |
| CCN(c1cc(/C=C/c2ccc(CN3CCC4(CC3)OCCO4)cc2)cc(C(=O)NCc2c(C)c3c([nH]c2=O)CCCC3)c1C)C1CCOCC1 | 17.5 |
| CCN(c1cc(/C=C/c2ccc(CN3CCN(C)CC3)cc2)cc(C(=O)NCc2c(C)c3c([nH]c2=O)CCCC3)c1C)C1CCOCC1 | 3.11 |

Qu. # query: IC50 of entry "CCN(c1cc(/C=C/c2ccc(N3CCOCC3)nc2)cc(C(=O)NCc2c3c(c(C)[nH]c2=O)CCCC3)c1C)C1CCOCC1"
Ans. 12.6

Qu. Using the record for "CCN(c1cc(/C=C/c2ccc(CN3C[C@H]4C[C@@H]3CO4)c(F)c2)cc(C(=O)NCc2c3c(c(C)[nH]c2=O)CCCC3)c1C)C1CCOCC1" , report its IC50.
Ans. 5.85
